Listed here: items and their measured EC50.
Biological target: human mGluR5a receptor (Homo sapiens, UniProt P41594)
Sequence (P41594 21-1180 isoform P41594-2 limits assumed): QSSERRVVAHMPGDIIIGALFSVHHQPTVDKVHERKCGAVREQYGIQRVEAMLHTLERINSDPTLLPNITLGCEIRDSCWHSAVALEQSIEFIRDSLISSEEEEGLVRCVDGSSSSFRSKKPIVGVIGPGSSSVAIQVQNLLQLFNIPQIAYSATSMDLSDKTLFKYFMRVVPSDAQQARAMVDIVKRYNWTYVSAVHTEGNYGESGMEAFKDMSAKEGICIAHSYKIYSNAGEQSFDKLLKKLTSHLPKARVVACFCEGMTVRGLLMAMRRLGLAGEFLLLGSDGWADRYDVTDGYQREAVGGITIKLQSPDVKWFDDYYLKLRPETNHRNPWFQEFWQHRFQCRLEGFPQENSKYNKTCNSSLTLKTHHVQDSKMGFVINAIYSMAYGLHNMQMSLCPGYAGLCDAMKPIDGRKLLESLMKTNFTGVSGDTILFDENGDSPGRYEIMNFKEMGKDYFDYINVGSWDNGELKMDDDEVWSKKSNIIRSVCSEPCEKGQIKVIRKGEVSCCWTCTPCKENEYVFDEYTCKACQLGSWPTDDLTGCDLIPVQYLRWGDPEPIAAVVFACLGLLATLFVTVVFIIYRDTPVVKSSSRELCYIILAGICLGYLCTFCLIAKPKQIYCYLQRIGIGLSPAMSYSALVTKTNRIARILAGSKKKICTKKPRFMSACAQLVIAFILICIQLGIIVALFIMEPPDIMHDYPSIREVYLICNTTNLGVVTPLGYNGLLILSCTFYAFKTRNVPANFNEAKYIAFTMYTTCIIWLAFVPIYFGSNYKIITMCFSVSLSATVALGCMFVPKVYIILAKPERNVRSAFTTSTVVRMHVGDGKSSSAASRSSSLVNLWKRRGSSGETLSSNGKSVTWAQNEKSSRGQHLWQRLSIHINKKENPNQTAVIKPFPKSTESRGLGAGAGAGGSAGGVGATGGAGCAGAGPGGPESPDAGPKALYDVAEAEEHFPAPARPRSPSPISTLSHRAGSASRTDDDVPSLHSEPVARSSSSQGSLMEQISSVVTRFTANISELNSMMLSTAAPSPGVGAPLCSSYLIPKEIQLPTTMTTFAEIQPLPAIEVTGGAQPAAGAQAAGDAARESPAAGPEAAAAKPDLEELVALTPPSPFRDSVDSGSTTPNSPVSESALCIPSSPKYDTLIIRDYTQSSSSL
Test: Cell-based functional Ca2+ mobilization assay (FDSS), potentiation of glutamate EC20 response in H10H cell line
Settings: HEK cells transfected with human mGluR5 (H10H), presence of glutamate EC20; read-out: EC50
Hi! Could you send only the number? It should be in nM, unit omitted.

// below: answered molecules
- molecule: "O=C(c1cnccn1)N1CCn2nc(COc3cccc(F)c3)cc2C1"
  EC50 / nM: 3020
- molecule: "N#Cc1cccc(C(=O)N2CCn3nc(COc4cccc(F)c4)cc3C2)c1"
  EC50 / nM: 331
- molecule: "CC1Cn2nc(COc3ccccc3)cc2CN1C(=O)c1cccc(F)c1 (stereo not drawn) [Compound 47]"
  EC50 / nM: 1070

// moving on: another record for EC50
Exercise: Under human mGluR5a receptor (Homo sapiens, UniProt P41594): EC50 value of "O=C(c1ccc(F)c(F)c1)N1CCn2nc(COc3ccccc3)cc2C1" ?
Solution: 414

----------
Biological target: human mGluR5a receptor (Homo sapiens)
Assay: Cell-based functional Ca2+ mobilization assay (FDSS), potentiation of glutamate EC20 response in H10H cell line
Details: HEK293, maximum average response at a single concentration, percent of maximal glutamate response; human mGluR5 HEK cells; read-out: Emax
observable: Emax (%)
Report the figure in % without appending any unit label.

Here is how some compounds turned out for Emax.
- compound: "CC1Cn2nc(COc3ccccc3)cc2CN1C(=O)c1cc(F)cc(C#N)c1 (centres unmarked)"
  Emax / %: 56
- compound: "Cc1cnc(C(=O)N2CCn3nc(COc4cccc(F)c4)cc3C2)cn1"
  Emax / %: 36
- compound: "CC1CN(C(=O)c2cc(F)cc(C#N)c2)Cc2cc(COc3ccccc3)nn21 (centres unmarked)"
  Emax / %: 66
- compound: "N#Cc1cccc(C(=O)N2CCn3nc(COc4ccccc4)cc3C2)c1"
  Emax / %: 60

Exercise: What does the data say about its Emax? Entry: "O=C(c1ccc(F)cc1F)N1CCn2nc(COc3cccc(F)c3)cc2C1"
Solution: 82

Exercise: Subsequent entry: "Cc1c(COc2ccccc2)nn2c1CN(C(=O)c1ccc(F)cc1)CC2"
Solution: 44

Exercise: Next: "Cc1ncccc1C(=O)N1CCn2nc(COc3cccc(F)c3)cc2C1"
Solution: 34

Exercise: Next compound: "Cc1cccc(C(=O)N2CCn3nc(COc4cccc(F)c4)cc3C2)n1"
Solution: 58

Exercise: What about "O=C(c1ncc(F)cc1F)N1CCn2nc(COc3cccc(F)c3)cc2C1" ?
Solution: 77

Exercise: Another compound to check: "N#Cc1ccc(C(=O)N2CCn3nc(COc4ccccc4)cc3C2)cc1F"
Solution: 23

Exercise: Same for "O=C(c1cncc(F)c1)N1CCn2nc(COc3cccc(F)c3)cc2C1"
Solution: 58

Exercise: Record: "CC1(C)CN(C(=O)c2ccc(F)cc2)Cc2cc(COc3ccccc3)nn21"
Solution: 66

Exercise: Moving on to the next compound: "O=C(c1cccc(F)c1)N1CCn2nc(COc3ccccc3)cc2C1"
Solution: 66

Exercise: Check "O=C(c1ccccc1)N1CCn2nc(COc3cccc(F)c3)cc2C1" too.
Solution: 72

Exercise: What about "O=C(c1cccc(F)c1)N1CCn2nc(COc3ccc(F)cc3)cc2C1" ?
Solution: 55

Exercise: What do we get for "Cc1ccc(C(=O)N2CCn3nc(COc4cccc(F)c4)cc3C2)cn1" ?
Solution: 30

Exercise: // same read-out, input: "N#Cc1ccc(C(=O)N2CCn3nc(COc4cccc(F)c4)cc3C2)cc1F"
Solution: 23

Exercise: Repeat with "O=C(c1ccc(F)cc1)N1CCn2nc(COc3ccc(F)cc3)cc2C1"
Solution: 58
